Give Population Healthy Nuclei (%) for every item shown.
tested on: U2OS; experiment: Multiplex assay against U2OS; type: toxicity, cell-based; details: human, 24 h, 1 µM, compound concentration 1 uM, replicate 1
Give your result as the value with the unit written after it.

Enter Population Healthy Nuclei (%) (test system U2OS) for Cl.O=C(c1ccc(Nc2nccc(-c3cc4ccccc4s3)n2)cc1)N1CCC(N2CCCC2)CC1
81%

Output reported Population Healthy Nuclei (%) of the molecule O=C(Nc1ccc(Cl)cc1)Nc1cccc(-c2cccc(N3CCCC3)n2)c1 on U2OS.
83%

Would you please give the reported Population Healthy Nuclei (%) of CCc1cccc(CC)c1NC(=O)c1nn(C)c2c1CCc1cnc(Nc3ccc(C(=O)NC4CCN(C)CC4)cc3OC(F)(F)F)nc1-2 with U2OS?
64%

Would you please give the reported Population Healthy Nuclei (%) of CCN1CCN(Cc2ccc(Nc3ncc(F)c(-c4cc(F)c5nc(C)n(C(C)C)c5c4)n3)nc2)CC1.CS(=O)(=O)O with U2OS?
59%

// fetch Population Healthy Nuclei (%); item: CCOC(=O)c1c(C)[nH]c2ccc3c(c12)CN1CCc2cc(OC)ccc2C1O3 (stereo not given) ; system: U2OS
79%

Given CCN1CCN(c2ccc(Nc3cc(N(C)C(=O)Nc4c(Cl)c(OC)cc(OC)c4Cl)ncn3)cc2)CC1 , report its Population Healthy Nuclei (%) on U2OS.
44%

Quote Population Healthy Nuclei (%) with test system U2OS for CNC(=O)c1ccc(Nc2nc(OC3CCCC3)c3c(-c4ccc5nc(C)oc5c4)c[nH]c3n2)c(OC)c1
8%

Under U2OS: report Population Healthy Nuclei (%) of Cc1cn(-c2cc(NC(=O)c3ccc(C)c(Nc4nccc(-c5cccnc5)n4)c3)cc(C(F)(F)F)c2)cn1 .
66%

Look up and report measured Population Healthy Nuclei (%) (U2OS) for the following molecule: S=C(NCCCc1c[nH]cn1)NCCCN(Cc1ccc(Cl)c(Cl)c1)c1ccc(Br)cn1
76%

Report Population Healthy Nuclei (%) under test system U2OS for CCn1cc(-c2ccnc3[nH]c(-c4cccc(CN(C)C)c4)cc23)c(-c2ccc(NC(=O)N(C)C)cc2)n1 .
81%

Specify the recorded Population Healthy Nuclei (%) for CCCS(=O)(=O)c1nc(NC2CC2)cc(-c2ccc3c(ccn3C3CC(C)(C)NC(C)(C)C3)c2)n1 , system: U2OS.
67%

Report value only: Population Healthy Nuclei (%), U2OS, COc1cccc2cc(-c3nc([C@H]4CC[C@H](C(=O)O)CC4)n4ncnc(N)c34)[nH]c12
81%

For U2OS, give the measured Population Healthy Nuclei (%) of the entry CN[C@@H]1C[C@H]2O[C@@](C)([C@@H]1OC)n1c3ccccc3c3c4c(c5c6ccccc6n2c5c31)C(=O)NC4
22%

State Population Healthy Nuclei (%) on U2OS. Entry: CN1CCN(C(=O)C(C)(C)c2ccc(C(=O)Nc3cn4cc(-c5cc(C(C)(C)C)cc(C(C)(C)C)c5)ccc4n3)cc2)CC1
80%

Report Population Healthy Nuclei (%) under test system U2OS for O=C1N/C(=N/c2ccccc2F)S/C1=C\c1ccc(C(=O)O)cc1 .
81%

Lab note: U2OS assay, enter Population Healthy Nuclei (%) for CCn1c(=O)c(-c2ccc(-c3cncs3)cc2Cl)cc2cnc(Nc3ccc(N4CCN(C)CC4)cc3)nc21 here
78%

Return reported Population Healthy Nuclei (%) for target or system U2OS, item CN(C)C(=O)C(CCN1CCC(O)(c2ccc(Cl)cc2)CC1)(c1ccccc1)c1ccccc1.Cl [LOPERAMIDE HYDROCHLORIDE] .
74%

Fill: Population Healthy Nuclei (%) (U2OS) for this molecule Cl.O=c1c2cccn2c2ccccc2n1CCCN1CCC(c2ccc(Cl)cc2)CC1
73%

Jot down Population Healthy Nuclei (%) (U2OS) of C=C1/C(=C\C=C2/CCC[C@]3(C)[C@@H]([C@H](C)/C=C/[C@H](C)C(C)C)CC[C@@H]23)C[C@@H](O)C[C@@H]1O .
84%

Using U2OS as the test system, report measured Population Healthy Nuclei (%) of Cl.Oc1ccc2c3c1O[C@H]1c4[nH]c5c(c4C[C@@]4(O)[C@@H](C2)N(CC2CC2)CC[C@]314)C[C@@]1(O)[C@H]2Cc3ccc(O)c4c3[C@@]1(CCN2CC1CC1)[C@H]5O4 .
80%

GET Population Healthy Nuclei (%) | system: U2OS | item: C=CCn1c(=O)c2cnc(Nc3ccc(N4CCN(C)CC4)cc3)nc2n1-c1cccc(C(C)(C)O)n1
41%

Quote U2OS Population Healthy Nuclei (%) for entry CN1CCC(=C2c3ccccc3CC(=O)c3sccc32)CC1.O=C(O)/C=C/C(=O)O [KETOTIFEN FUMARATE] .
77%

# return Population Healthy Nuclei (%) for Cn1nc(C(F)(F)F)cc1-c1cnc(N2CCc3cc(S(=O)(=O)Nc4c(F)cc(Cl)cc4F)cc(N4CCCC4=O)c32)nc1 , test system: U2OS
90%

State Population Healthy Nuclei (%) on U2OS. Entry: Cc1ccc2nc(NCCN)c3ncc(C)n3c2c1.O=C(O)C(F)(F)F.O=C(O)C(F)(F)F
93%

Fill in Population Healthy Nuclei (%) for COc1cc2ncnc(Nc3ccc(F)c(Cl)c3)c2cc1NC(=O)/C=C/CN1CCCCC1 [DACOMITINIB ANHYDROUS] tested with U2OS.
81%

Write down measured Population Healthy Nuclei (%) (U2OS) for this molecule. CN1C2CCC1CC(OC(c1ccc(F)cc1)c1ccc(F)cc1)C2.Cl (stereo not given)
84%

Quote U2OS Population Healthy Nuclei (%) for entry CNc1cc(Oc2cc(C(=O)Nc3cc(N4CCN(C)CC4)cc(C(F)(F)F)c3)ccc2C)ncn1 .
64%

Find Population Healthy Nuclei (%) for O=C(Cc1ccc(-c2ccc(OCCN3CCOCC3)cc2)cn1)NCc1ccccc1 on U2OS and write it down.
50%

Report value only: Population Healthy Nuclei (%), U2OS, COc1ccc(-c2ccc3c(N4CCOCC4)nc(N4C[C@@H](C)O[C@@H](C)C4)nc3n2)cc1CO
88%

Fill: Population Healthy Nuclei (%) (U2OS) for this molecule CCc1cccc(CC)c1NC(=O)c1nn(C)c2c1CCc1cnc(Nc3ccc(N4CCN(C)CC4)cc3OC)nc1-2
9%
